The origin of these recorded values is ChEMBL document CHEMBL1126722.

Biological target: Angiotensin II receptor (Rattus norvegicus) (UniProt P29089+P25095+P35351)
Test: In vivo inhibition of pressor response to angiotensin II in conscious normotensive rats
Type: functional, organism-based
Would you kindly list ID50 for each of these compounds?
Express it in mg/kg; write the number only.

Req: For the compound shown here, `CCCCc1ncc(/C=C(\Cc2cccs2)C(=O)O)n1Cc1cccc(OC)c1` , give the reported ID50.
Resp: 8

Req: Look up ID50: `CCCCc1ncc(/C=C(\Cc2cccs2)C(=O)O)n1Cc1ccc(C(=O)O)c(-c2ccccc2)c1`
Resp: 0.18

Req: Could you share which ID50 value was measured for `CCCCc1ncc(/C=C(\Cc2cccs2)C(=O)O)n1Cc1ccccc1Cl` ?
Resp: 3.6

Req: I am curious: what ID50 value has been reported for `CCCC/C(=C\c1cnc(CCCC)n1Cc1ccc(C(=O)O)cc1)C(=O)O` ?
Resp: 0.33

Req: Entry `CCCCc1ncc(/C=C(\Cc2cccs2)C(=O)O)n1Cc1ccc(C(=O)O)c(C(=O)O)c1` : reported ID50 = ?
Resp: 0.12

Req: I'd like to know its ID50. The compound in question is `CCCCc1ncc(/C=C(\Cc2cccs2)C(=O)O)n1Cc1cccc(Cl)c1Cl`
Resp: 2.8

Req: Fill in: ID50 of `CCCCc1ncc(/C=C(\Cc2cccs2)C(=O)O)n1Cc1ccccc1[N+](=O)[O-]` is ___
Resp: 2.6

Req: // returns reported ID50 for input `CCCCc1ncc(/C=C(\Cc2cccs2)C(=O)O)n1Cc1cccc([N+](=O)[O-])c1`
Resp: 7

Req: Requested field: ID50. Item: `CCCCc1ncc(/C=C(\Cc2cccs2)c2nn[nH]n2)n1Cc1ccccc1C(F)(F)F`
Resp: 8

Req: Recorded ID50 for `CC(C)Cc1ncc(/C=C(\Cc2cccs2)C(=O)O)n1Cc1ccc(C(=O)O)cc1` , please?
Resp: 2

* * *

What ID50 was measured for each of the following?
Target: Angiotensin II receptor (Rattus norvegicus) (UniProt P29089+P25095+P35351)
Assay: In vivo inhibition of pressor response to angiotensin II in conscious normotensive rats
Format: functional, organism-based
Respond numerically; units are mg/kg and should not be typed.

Req: Short answer please: ID50, Angiotensin II receptor (Rattus norvegicus) (UniProt P29089+P25095+P35351), entry `CCCCc1ncc(/C=C(\Cc2cccs2)C(=O)O)n1Cc1ccc(C(=O)O)c(Cl)c1`
Resp: 0.12

Req: Write down the reported ID50 of `CCCCc1ncc(/C=C(\Cc2cccs2)c2nn[nH]n2)n1Cc1ccc(C(=O)O)cc1` , test system: Angiotensin II receptor (Rattus norvegicus) (UniProt P29089+P25095+P35351).
Resp: 0.7

Req: For the record `CCCCc1ncc(/C=C(\Cc2cccs2)C(=O)O)n1Cc1ccc(C(=O)O)cc1[N+](=O)[O-]` , what value of ID50 is listed for Angiotensin II receptor (Rattus norvegicus) (UniProt P29089+P25095+P35351)?
Resp: 0.06

Req: ID50 of `CCCc1ncc(/C=C(\Cc2cccs2)C(=O)O)n1Cc1ccccc1Cl` on Angiotensin II receptor (Rattus norvegicus) (UniProt P29089+P25095+P35351)?
Resp: 8.1

Req: ID50 of `CCCCc1ncc(/C=C(\Cc2cccs2)C(=O)O)n1Cc1ccc(C(=O)O)c(O)c1` on Angiotensin II receptor (Rattus norvegicus) (UniProt P29089+P25095+P35351)?
Resp: 0.15

* * *

Molecular target: Angiotensin II receptor (Rattus norvegicus, UniProt P29089+P25095+P35351)
Assay: Inhibition of [125I]AII binding to Angiotensin II receptor, type 1 of rat mesenteric arteries
Format: protein assay
attribute_measured: log10 of IC50 (log10 of the value in nM)
The base-10 logarithm of IC50, taken with IC50 in nM, is what appears here.

Req: # query: log10 of IC50 | item `CCCCc1ncc(/C=C(/C(=O)O)C(C)(C)c2cccs2)n1Cc1ccc(C(=O)O)cc1` | system: Angiotensin II receptor (Rattus norvegicus, UniProt P29089+P25095+P35351)
Resp: 2.62

Req: Form entry - test system: Angiotensin II receptor (Rattus norvegicus, UniProt P29089+P25095+P35351); read-out: log10 of IC50; molecule: `CC(C)CCc1ncc(/C=C(\Cc2cccs2)C(=O)O)n1Cc1ccc(C(=O)O)cc1`
Resp: 1.53

Req: Recorded log10 of IC50 for `CCCCc1ncc(/C=C(\Cc2cccs2)C(=O)O)n1Cc1ccccc1O` with Angiotensin II receptor (Rattus norvegicus, UniProt P29089+P25095+P35351), please?
Resp: 1.53

Req: Please tell me: log10 of IC50 of `CCCc1ncc(/C=C(\Cc2cccs2)C(=O)O)n1Cc1ccc(C(=O)O)cc1` , system Angiotensin II receptor (Rattus norvegicus, UniProt P29089+P25095+P35351)?
Resp: 0.70

Req: Give log10 of IC50 (Angiotensin II receptor (Rattus norvegicus, UniProt P29089+P25095+P35351)) of the following molecule: `CCCCc1ncc(/C=C(\Cc2cccs2)C(=O)O)n1Cc1ccccc1[N+](=O)[O-]`
Resp: 1.49

* * *

Molecular target: Angiotensin II receptor (Rattus norvegicus, UniProt P29089+P25095+P35351)
Assay: Inhibition of [125I]AII binding to Angiotensin II receptor, type 1 of rat mesenteric arteries
Format: protein assay
attribute_measured: IC50 (nM)
Reply with just the number (in nM).

Req: Param item = CCCCc1ncc(CC(Cc2cccs2)C(=O)O)n1Cc1ccc(C(=O)O)cc1 (stereo not given) ; retrieve measured IC50.
Resp: 53

Req: What measured IC50 goes with `CCCCc1ncc(/C=C(\Cc2cccs2)C(=O)NCC(=O)O)n1Cc1ccc(C(=O)O)cc1` ?
Resp: 4.81

Req: Look at this molecule and give its reported IC50. `CCCCc1ncc(/C=C(\Cc2cccs2)C(=O)O)n1Cc1ccc(C(N)=O)cc1`
Resp: 0.56

Req: Return reported IC50; argument: `CCCCc1ncc(/C=C(\Cc2cccs2)C(=O)O)n1Cc1ccc(C#N)cc1`
Resp: 118

Req: Look up IC50: `CCCCc1ncc(/C=C(\Cc2cccs2)C(=O)O)n1Cc1ccc(C(=O)O)c(O)c1`
Resp: 0.59

Req: Form field: reported IC50 of `CCCCc1ncc(/C=C(\Cc2cccs2)C(=O)O)n1Cc1ccc(C(=O)OC)cc1`
Resp: 39

Req: Field request: IC50 | item: `CCCCc1ncc(/C=C(\Cc2cccs2)C(=O)O)n1Cc1ccc(C(=O)O)cc1Cl`
Resp: 1.45

Req: # get_value(readout='IC50', item= `CCCCc1ncc(/C=C(\Cc2cccs2)C(=O)OCC)n1Cc1ccc(C(=O)OCC)cc1` )
Resp: 1270

Req: Which IC50 value belongs to `CCCCc1ncc(/C=C(\Cc2cccs2)C(=O)O)n1Cc1ccc(C(=O)O)c(Cl)c1` ?
Resp: 1

Req: Fill in the blank: the reported IC50 of `CCCCc1ncc(/C=C(\Cc2cccs2)C(=O)O)n1Cc1ccc([N+](=O)[O-])cc1` is ____.
Resp: 620

Req: What IC50 value was documented for this molecule, `CCCCc1ncc(/C=C(\Cc2cccs2)C(=O)O)n1Cc1ccc(C(=O)O)c(C(=O)O)c1` ?
Resp: 4.6

Req: I'd like to know its IC50. The molecule in question is CCCCc1ncc(/C=C(\CC2CCCS2)C(=O)O)n1Cc1ccc(C(=O)O)cc1 (stereo not given)
Resp: 33.8

Req: Which IC50 is reported for this molecule? `CCCCCCc1ncc(/C=C(\Cc2cccs2)C(=O)O)n1Cc1ccccc1Cl`
Resp: 123

Req: Name the recorded IC50 for `CCCCc1ncc(/C=C(\Cc2cccs2)C(=O)O)n1Cc1ccc(C(=O)O)cc1[N+](=O)[O-]` .
Resp: 0.15

Req: Which measured IC50 value corresponds to `CCCCc1ncc(/C=C(\Cc2cccs2)C(=O)O)n1Cc1cccc([N+](=O)[O-])c1` ?
Resp: 210

Req: # query: IC50 of entry `CCCCc1ncc(/C=C(\Cc2cccs2)c2nn[nH]n2)n1Cc1ccc(C(=O)O)cc1`
Resp: 0.3

Req: // IC50 lookup, key: `CCCCc1ncc(/C=C(\Cc2cccs2)C(=O)O)n1Cc1ccccc1C#N`
Resp: 22

Req: Fill in: IC50 of `CCCCc1ncc(/C=C(\Cc2ccccc2)C(=O)O)n1Cc1ccc(C(=O)O)cc1` is ___
Resp: 4.26

Req: Looking for the measured IC50 of `CCCCc1ncc(/C=C(\Cc2cccs2)C(N)=O)n1Cc1ccc(C(N)=O)cc1` , can you help?
Resp: 94.2

* * *

Molecular target: Angiotensin II receptor (Rattus norvegicus) (UniProt P29089+P25095+P35351)
Assay: In vivo inhibition of pressor response to angiotensin II in conscious normotensive rats
Format: functional, organism-based
attribute_measured: log10(ID50) (log10 of the value in mg/kg)
Reminder: these figures are log10 of reported ID50, in mg/kg before transformation.

Req: Return reported log10(ID50); argument: `CCCCCCc1ncc(/C=C(\Cc2cccs2)C(=O)O)n1Cc1ccccc1Cl`
Resp: 0.76

Req: Param item = `CCCCc1ncc(/C=C(\CCc2cccs2)C(=O)O)n1Cc1ccc(C(=O)O)cc1` ; retrieve measured log10(ID50).
Resp: -0.62

Req: Tell me the measured log10(ID50) of `CCCCc1ncc(/C=C(\Cc2cccs2)c2nn[nH]n2)n1Cc1ccccc1Cl` , please.
Resp: 0.90

Req: Give its log10(ID50) value. Item: `CCCc1ncc(/C=C(\Cc2cccs2)C(=O)O)n1Cc1ccc(C(=O)O)cc1`
Resp: -0.80

Req: // returns reported log10(ID50) for input `CCCCc1ncc(/C=C(\Cc2cccs2)C(=O)O)n1Cc1ccc(-c2nn[nH]n2)cc1`
Resp: -0.70

Req: Bench note: what log10(ID50) did `CCCCCCc1ncc(/C=C(\Cc2cccs2)C(=O)O)n1Cc1ccc(C(=O)O)cc1` show?
Resp: -0.22

Req: Fill in the blank: the reported log10(ID50) of `CCCCc1ncc(/C=C(\Cc2cccs2)C(=O)O)n1Cc1ccc(-c2ccccc2C(=O)O)cc1` is ____.
Resp: -0.21

Req: Any idea what its log10(ID50) is? The compound is `CCCCc1ncc(/C=C(\Cc2cccs2)c2nn[nH]n2)n1Cc1ccccc1[N+](=O)[O-]`
Resp: 0.54
